Quick reference for inhibition at 5 µg/mL among some compounds
Tested on: Alternaria alternata
Test: Plate medium fungicidal assay, Alternaria blotch A.m (Experimental Example 5)
Format: cell-based
Details: Alternaria alternata; plate medium containing compound at 5 mg/L; read-out: Growth inhibition grade, A.m

Guide cases for inhibition at 5 µg/mL, answers given:
CC(Cl)=C[C@@]1(C)CC[C@@H](Cc2ccc(Cl)cc2)[C@]1(O)Cn1cncn1 (racemic): > 80%
C[C@]1(CBr)CC[C@@H](Cc2ccc(Cl)cc2)[C@]1(O)Cn1cncn1 (racemic): 60 to 80%
C[C@]1(CCl)CC[C@@H](Cc2ccc(F)cc2)[C@]1(O)Cn1cncn1 (racemic): > 80%

Q: Query: inhibition at 5 µg/mL; subject: C[C@]1(CCl)CC[C@@H](Cc2ccc(Cl)cc2)[C@]1(O)Cn1cncn1 (racemic)
Result: > 80%

====

Test system: Phaeosphaeria nodorum
Test: Plate medium fungicidal assay, wheat Septoria nodorum blotch P.n (Experimental Example 5)
Format: cell-based
Settings: Parastagonospora nodorum; plate medium containing compound at 5 mg/L; read-out: Growth inhibition grade, P.n
assay readout: inhibition at 5 µg/mL

C[C@]1(CBr)CC[C@@H](Cc2ccc(Cl)cc2)[C@]1(O)Cn1cncn1 (racemic) [Compound I-25]: 60 to 80%
C[C@]1(CCl)CC[C@@H](Cc2ccc(F)cc2)[C@]1(O)Cn1cncn1 (racemic) [Compound I-77]: > 80%
C[C@]1(CCl)CC[C@@H](Cc2ccccc2)[C@]1(O)Cn1cncn1 (racemic) [Compound I-73]: > 80%

Q: Give inhibition at 5 µg/mL (Phaeosphaeria nodorum) of the following compound: C[C@]1(CCl)CC[C@@H](Cc2cccc(Cl)c2)[C@]1(O)Cn1cncn1 (racemic) [Compound I-74]
Result: > 80%

Q: // lookup inhibition at 5 µg/mL | system=Phaeosphaeria nodorum | key= O[C@]1(Cn2cncn2)[C@H](Cc2ccc(Cl)cc2)CC[C@@H]1C(F)(F)F (racemic) [Compound I-65]
Result: 60 to 80%

Q: Which inhibition at 5 µg/mL is reported with Phaeosphaeria nodorum for this entry: CC[C@]1(CCl)CC[C@@H](Cc2ccc(Cl)cc2)[C@]1(O)Cn1cncn1 (racemic) [Compound I-36] ?
Result: > 80%

Q: Entry C[C@]1(CCl)CC[C@@H](Cc2ccc(Cl)cc2)[C@]1(O)Cn1cncn1 (racemic) [Compound I-1] , system Phaeosphaeria nodorum: what inhibition at 5 µg/mL was measured?
Result: > 80%

Q: // fetch Phaeosphaeria nodorum inhibition at 5 µg/mL for CC(Cl)=C[C@@]1(C)CC[C@@H](Cc2ccc(Cl)cc2)[C@]1(O)Cn1cncn1 (racemic) [Compound I-15]
Result: > 80%

====

The following molecules are listed with their measured inhibition at 5 µg/mL values.
System: Ustilago nuda
Test: Plate medium fungicidal assay, barley loose smut U.n (Experimental Example 5)
Type: cell-based
Settings: Ustilago nuda; plate medium, 5 mg/L; read-out: growth inhibition grade U.n

O[C@]1(Cn2cncn2)[C@@H](Cc2ccc(Cl)cc2)CC[C@@H]1C(F)(F)F (racemic): 20 to 40%
CC(Cl)=C[C@]1(C)CC[C@@H](Cc2ccc(Cl)cc2)[C@]1(O)Cn1cncn1 (racemic): 60 to 80%
C[C@]1(CCl)CC[C@@H](Cc2ccc(Cl)cc2)[C@]1(O)Cn1cncn1 (racemic): > 80%
C[C@@]1(CCl)CC[C@H](Cc2ccc(Cl)cc2)[C@]1(O)Cn1cncn1 (racemic): 60 to 80%
C[C@]1(CCl)CC[C@@H](Cc2ccc(Cl)cc2)[C@]1(O)Cn1ccnc1 (racemic): > 80%

Q: # query: inhibition at 5 µg/mL of entry C[C@]1(CBr)CC[C@@H](Cc2ccc(F)cc2)[C@]1(O)Cn1cncn1 (racemic)
Result: 40 to 60%

Q: GET /values?readout=inhibition at 5 µg/mL&item= C[C@]1(CCl)CC[C@H](Cc2ccc(Cl)cc2)[C@]1(O)Cn1cncn1 (racemic)
Result: > 80%

Q: Can you look up the measured inhibition at 5 µg/mL of C[C@]1(CCl)CC[C@@H](Cc2ccc(F)cc2)[C@]1(O)Cn1cncn1 (racemic) for me?
Result: > 80%

Q: May I ask what inhibition at 5 µg/mL has been recorded for C[C@@]1(CCCl)CC[C@@H](Cc2ccc(Cl)cc2)[C@]1(O)Cn1cncn1 (racemic) ?
Result: > 80%

Q: Endpoint output: inhibition at 5 µg/mL of C[C@]1(CCl)CC[C@@H](Cc2ccccc2)[C@]1(O)Cn1cncn1 (racemic) . Value?
Result: > 80%

Q: // inhibition at 5 µg/mL lookup, key: C[C@]1(CBr)CC[C@@H](Cc2ccccc2)[C@]1(O)Cn1cncn1 (racemic)
Result: 60 to 80%

====

Test system: Fusarium graminearum
Assay: microbe, parasite or virus in culture
Assay type: cell-based
Conditions: Fusarium graminearum, read-out: growth inhibition grade F.g
assay readout: inhibition at 50 µg/mL

C[C@@]1(CCl)CC[C@H](Cc2ccc(Cl)cc2)[C@]1(O)Cn1cncn1 (racemic) [Compound I-401]: > 80%
C[C@]1(CCl)CC[C@@H](Cc2ccc(Cl)cc2)[C@]1(O)Cn1cncn1 (racemic) [Compound I-1]: > 80%
C[C@]1(CBr)CC[C@@H](Cc2ccccc2)[C@]1(O)Cn1cncn1 (racemic) [Compound I-602]: > 80%

Now look at this entry.
Q: // inhibition at 50 µg/mL lookup, key: C[C@]1(CBr)CC[C@@H](Cc2ccc(F)cc2)[C@]1(O)Cn1cncn1 (racemic) [Compound I-601]
Result: > 80%

====

System: Alternaria alternata
Assay: Plate medium fungicidal assay, Alternaria blotch A.m (Experimental Example 5)
Format: cell-based
Details: Alternaria alternata; plate medium containing compound at 5 mg/L; read-out: Growth inhibition grade, A.m
Below is a list of entries, each paired with its recorded inhibition at 5 µg/mL value.

Answered cases to consult:
C[C@]1(CCl)CC[C@@H](Cc2cccc(Cl)c2)[C@]1(O)Cn1cncn1 (racemic): 60 to 80%
CC[C@]1(CCl)CC[C@@H](Cc2ccc(Cl)cc2)[C@]1(O)Cn1cncn1 (racemic): > 80%
O[C@]1(Cn2cncn2)[C@H](Cc2ccc(Cl)cc2)CC[C@@H]1C(F)(F)F (racemic): 40 to 60%

Q: Would you mind telling me what inhibition at 5 µg/mL value was observed for C[C@]1(CCl)CC[C@@H](Cc2ccccc2)[C@]1(O)Cn1cncn1 (racemic) ?
Result: > 80%

====

Entries and their inhibition at 5 µg/mL
Test system: Phaeosphaeria nodorum
Test: Plate medium fungicidal assay, wheat Septoria nodorum blotch P.n (Experimental Example 5)
Assay type: cell-based
Details: Parastagonospora nodorum; plate medium, 5 mg/L; read-out: growth inhibition grade P.n

Worked examples follow.
C[C@]1(CCl)CC[C@H](Cc2ccc(Cl)cc2)[C@]1(O)Cn1cncn1 (racemic): > 80%
C[C@]1(CCl)CC[C@@H](Cc2ccc(Cl)cc2)[C@]1(O)Cn1cncn1 (racemic): > 80%
C[C@]1(CCl)CC[C@@H](Cc2ccc(F)cc2)[C@]1(O)Cn1cncn1 (racemic): > 80%
C[C@]1(CBr)CC[C@@H](Cc2ccccc2)[C@]1(O)Cn1cncn1 (racemic): 40 to 60%
C[C@@]1(CCCl)CC[C@@H](Cc2ccc(Cl)cc2)[C@]1(O)Cn1cncn1 (racemic): > 80%
C[C@]1(CCl)CC[C@@H](Cc2ccc(Cl)cc2)[C@]1(O)Cn1ccnc1 (racemic): > 80%
O[C@]1(Cn2cncn2)[C@@H](Cc2ccc(Cl)cc2)CC[C@@H]1C(F)(F)F (racemic): 40 to 60%
C[C@@]1(CCl)CC[C@H](Cc2ccc(Cl)cc2)[C@]1(O)Cn1cncn1 (racemic): > 80%

Q: For the compound CC(Cl)=C[C@]1(C)CC[C@@H](Cc2ccc(Cl)cc2)[C@]1(O)Cn1cncn1 (racemic) , what inhibition at 5 µg/mL is on record?
Result: 60 to 80%

Q: Record request: inhibition at 5 µg/mL value, item C[C@]1(CBr)CC[C@@H](Cc2ccc(F)cc2)[C@]1(O)Cn1cncn1 (racemic)
Result: 60 to 80%

Q: What inhibition at 5 µg/mL value was documented for this compound, C[C@]1(CCl)CC[C@@H](Cc2ccccc2)[C@]1(O)Cn1cncn1 (racemic) ?
Result: > 80%
